System: HT29 colon
run-description: NCI-60 one-dose screen, 48 h
recorded-conditions: 10 µM unless noted
The panel holds about 83,000 compounds, 20% with a hit somewhere; the sample as a whole holds those more often. Activity calls are given as the source filed them. Rule for the calls: active = growth percent below 10; inactive = the rest.
Outcomes you can answer with include only these: y = active, n = inactive

O=C1/C(=C/c2ccc(Cl)cc2)SC(=S)N1CCc1ccc(O)cc1    n
COc1ccc(-c2nc3ccc(-c4nc5ccc(N6CCN(c7ccncc7)CC6)cc5[nH]4)cc3[nH]2)cc1OC    n
O=C1c2ccccc2C(=O)c2c1ccc1[nH]c(-c3cccs3)nc21    n
O=C(Nc1cccc2[nH]c(C(F)(F)F)nc12)c1ccc(-n2cnnn2)cc1    n
CC1=CC(C)(C)Nc2ccc(Cc3ccc4c(c3)C(C)=CC(C)(C)N4)cc21    n
COC(=O)[C@]12CCC(C)(C)C[C@H]1[C@H]1C(=O)C[C@@H]3[C@@]4(C)c5c([nH]c6ccccc6c5=O)C(C)(C)[C@@H]4CC[C@@]3(C)[C@]1(C)CC2    n
O=C1C=CC(=O)N1c1ccc2c(c1)Cc1cc(F)ccc1-2    n
COc1cc(Nc2cc(C)nc(N3CCN(c4ccnc5cc(Cl)ccc45)CC3)n2)cc(OC)c1    y
O=c1cc(CSc2nnc(SCc3cc(=O)oc4c3ccc3ccccc34)o2)c2ccc3ccccc3c2o1    n
CSc1nc2c(c(=O)[nH]1)C1(C(=O)Nc3ccccc31)c1c(nc(SC)[nH]c1=O)N2    n

Could you kindly confirm the outcome this assay logged for "O=c1cc(CSc2nnc(-c3ccc(F)cc3)o2)c2ccc3ccccc3c2o1" ?
n

Could you kindly confirm the outcome this assay logged for "Cc1[nH]c(-c2ccc3cc[nH]c3c2)c2c1C(=O)CCCC2" ?
n

Could you kindly confirm the outcome this assay logged for "Oc1ccccc1-c1nnc(CNc2ccc(Cl)cc2)o1" ?
n

Could you kindly confirm the outcome this assay logged for CSc1ccc(SC2c3ccc(C)cc3Oc3nc(N)c(C#N)c(N)c32)cc1 (centres undefined) ?
y

Could you kindly confirm the outcome this assay logged for "CC1=C/C(=C(\c2ccc(N(C)C)cc2)c2ccc([N+](C)(C)C)cc2)C=CC1=[N+](C)C" ?
n

Could you kindly confirm the outcome this assay logged for "CCOC(=O)n1cc(-c2nonc2-c2cn(C)c3ncccc23)c2ccccc21" ?
n

Could you kindly confirm the outcome this assay logged for "COc1ccc(-n2nc(C)c3c(Nc4ccc(NC(=O)Nc5cc(C(F)(F)F)ccc5F)cc4)ncnc32)cc1" ?
y

Could you kindly confirm the outcome this assay logged for "N=C(N)c1ccc(-c2ccc(-c3ccc4ccccc4c3)s2)s1" ?
y

Could you kindly confirm the outcome this assay logged for COc1cccc2c1C(=O)c1c(O)c3c(c(O)c1C2=O)C[C@](O)(C(=O)CO)C[C@H]3O[C@@H]1C[C@@H](NC(=O)CCCN(C)C2(c3ccc(F)cc3)CC3CCC2C3)[C@H](O)[C@@H](C)O1 (some centres undefined) ?
y

Could you kindly confirm the outcome this assay logged for "O=C(Nc1ccccc1Cl)c1ccc(NC2=C(Cl)C(=O)N(C3CCCCC3)C2=O)cc1" ?
n

Could you kindly confirm the outcome this assay logged for CCn1c(O)c(/C=N/NC(=O)C(C)c2ccc(CC(C)C)cc2)sc1=S (centres undefined) ?
n

Could you kindly confirm the outcome this assay logged for CCNc1ncnc2c1cnn2C1CCCO1 (centres undefined) ?
n

Could you kindly confirm the outcome this assay logged for "COC(=O)c1ccc2oc(NC(=O)c3ccc(Nc4ccc([N+](=O)[O-])cc4C)c([N+](=O)[O-])c3)nc2c1" ?
n

Could you kindly confirm the outcome this assay logged for "COc1cc2nc(N3CCCC3)nc(NCCc3ccccc3)c2cc1OC" ?
y

Could you kindly confirm the outcome this assay logged for "CCOc1nc(-c2ccccc2)cc2c(O)c(C(=O)O)[nH]c(=O)c12" ?
n

Could you kindly confirm the outcome this assay logged for "C=C(C)[C@@H]1CC[C@]2(C(N)=O)CC[C@]3(C)[C@H](CC[C@@H]4[C@@]5(C)C/C(=C/c6ccco6)C(=O)C(C)(C)[C@@H]5CC[C@]43C)[C@@H]12" ?
n

Could you kindly confirm the outcome this assay logged for "O=C1C=C(O)C(=O)C(CC2=C(O)C(=O)C=C(O)C2=O)=C1O" ?
n

Could you kindly confirm the outcome this assay logged for "CCOC(=O)c1c(C(=O)OCC)c2cc(-c3ccn4c(C(=O)c5ccccc5)c(C(=O)OCC)c(C(=O)OCC)c4c3)ccn2c1C(=O)c1ccccc1" ?
n

Could you kindly confirm the outcome this assay logged for "N#Cc1c(-c2ccc(Cl)cc2)nc(N=Nc2c(O)[nH]c3ccc(Cl)cc23)nc1N1CCOCC1" ?
n
